Values compiled from patent US20100266614A1.

Readings of EC50 (read off the curve) for the listed binders
Assayed Target: T1, RSV F protein (C-terminal truncated F protein secreted from a recombinant baculovirus) (respiratory syncytial virus (RSV), UniProt P03420 26-524)
T1 construct: also called F antigen; RSV F antigen
T1 sequence (P03420 26-109, chain 1 of 2): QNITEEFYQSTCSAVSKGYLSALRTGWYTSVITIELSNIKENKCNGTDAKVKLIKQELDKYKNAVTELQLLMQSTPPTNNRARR
T1 sequence (P03420 137-524, chain 2 of 2): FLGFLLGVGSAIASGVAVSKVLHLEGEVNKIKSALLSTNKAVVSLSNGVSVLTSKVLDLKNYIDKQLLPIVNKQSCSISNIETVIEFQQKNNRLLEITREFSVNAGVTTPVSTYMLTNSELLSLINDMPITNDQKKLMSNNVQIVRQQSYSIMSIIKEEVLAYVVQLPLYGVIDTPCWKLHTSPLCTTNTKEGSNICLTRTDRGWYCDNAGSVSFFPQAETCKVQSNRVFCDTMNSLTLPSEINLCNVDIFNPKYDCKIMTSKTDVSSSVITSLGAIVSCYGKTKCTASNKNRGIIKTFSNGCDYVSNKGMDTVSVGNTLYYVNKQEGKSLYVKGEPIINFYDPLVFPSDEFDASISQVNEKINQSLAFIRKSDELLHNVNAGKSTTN
Assay Remarks: ELISA titration of antibody on RSV F antigen, O.D. 560

Binder	Measured Quantity	Result
clone 17 (PWSW) (antibody, V domains shown) VH: QVTLRESGPALVKPTQTLTLTCTFSGFSLSTPGMSVGWIRQPPGKALEWLADIWWDDKKDYNPSLKSRLTISKDTSKNQVVLKVTNMDPADTATYYCARSMITNWYFDVWGQGTTVTVSS VL: DIQMTQSPSTLSASVGDRVTITCSASSSVGYMHWYQQKPGKAPKLLIYDTSKLASGVPSRFSGSGSGTEFTLTISSLQPDDFATYYCFQGSWYPFTFGGGTKVEIK	EC50 (read off the curve)	~0.04 µg/mL

Q. Entry under review: 16 (antibody, V domains shown, also called AWSG) VH: QVTLRESGPALVKPTQTLTLTCTFSGFSLSTAGMSVGWIRQPPGKALEWLADIWWDDKKDYNPSLKSRLTISKDTSKNQVVLKVTNMDPADTATYYCARSMITNWYFDVWGQGTTVTVSS VL: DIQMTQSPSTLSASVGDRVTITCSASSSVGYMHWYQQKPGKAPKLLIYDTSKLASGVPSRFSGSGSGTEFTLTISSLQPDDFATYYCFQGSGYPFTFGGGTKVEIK . Reported EC50 (read off the curve)?
A. ~0.03 µg/mL

Q. Another: IX-493 (SWSG), basic or reference antibody (Fab, V domains shown, also called basic antibody) VH: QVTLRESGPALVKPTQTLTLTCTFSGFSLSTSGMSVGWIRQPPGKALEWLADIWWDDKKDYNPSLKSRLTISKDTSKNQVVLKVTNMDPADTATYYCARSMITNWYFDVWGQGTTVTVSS VL: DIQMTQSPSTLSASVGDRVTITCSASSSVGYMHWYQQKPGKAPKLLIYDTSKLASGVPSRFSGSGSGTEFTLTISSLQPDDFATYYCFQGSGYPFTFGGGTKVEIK
A. ~0.2 µg/mL

Q. Another: clone 4 (PFFY) (antibody, V domains shown, also called 4 (n = 3)) VH: QVTLRESGPALVKPTQTLTLTCTFSGFSLSTPGMSVGWIRQPPGKALEWLADIWWDDKKDYNPSLKSRLTISKDTSKNQVVLKVTNMDPADTATYYCARSMITNFYFDVWGQGTTVTVSS VL: DIQMTQSPSTLSASVGDRVTITCSASSSVGYMHWYQQKPGKAPKLLIYDTFKLASGVPSRFSGSGSGTEFTLTISSLQPDDFATYYCFQGSYYPFTFGGGTKVEIK
A. ~0.01 µg/mL
